Data provenance: patent US20210253725A1

study target: T1, CD27 expressed on the cell surface of HT1080_CD27 cells (human, UniProt P26842 20-260)
T1 construct: whole, on cells; species not restated for the HT1080 transfectant
T1 sequence (looked up): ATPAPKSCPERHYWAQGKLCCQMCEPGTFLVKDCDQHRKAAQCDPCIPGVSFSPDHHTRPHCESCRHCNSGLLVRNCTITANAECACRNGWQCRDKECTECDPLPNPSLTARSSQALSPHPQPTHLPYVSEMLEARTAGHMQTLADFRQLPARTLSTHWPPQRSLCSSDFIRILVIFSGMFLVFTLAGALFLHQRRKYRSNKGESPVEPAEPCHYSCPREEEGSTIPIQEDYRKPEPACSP
assay comment: HT1080_CD27 cells, imaging; further: test concentration or dose not given here
measure name: Cellular binding assay [RFU] (RFU)
Quick reminder: number only, in RFU, skip the unit.

Please review the following examples before continuing.
P018.S.03.A.D05 (antibody, V domains shown, V regions on human Ig constant parts; also called AB27_50) VH: QSLEESGGRLVTPGTPLTLTCTASGFSLSSYYITWVRQAPGEGLEWIGTISTAGNTYFASWANGRFTISRTSTTVDLKMTSPTTEDTATYFCARDGAGDSNYYRNLWGQGTLVTVSS VL: DIVLTQTPASVEAAVGGTVTIKCQASQSIDRFLAWYQQKPGQPPKLLIYDASDLASGVPSRFSGSGYGTEFTLTISGVQSEDAATYYCQQGYYISDIHNVFGGGTEVVVK = 324
P018.S.04.A.E05 (antibody, V domains shown, V regions on human Ig constant parts; also called AB27_76) VH: QSLEESGGDLVKPGASLTLTCTASGFSFSSDYYMCWVRQAPGKGLEWIACISAGSSGSIYYASWAKGRFTISKTSSTTVTLQMTSLTAADTATYFCAREASDSIYYPIFNLWGPGTLVTVSS VL: AAVLTQTPSPVSAAVGGTVSISCQSSKSVYNNNALSWFQQKPGQPPKLLIYGASTLPSRVPSRFKGSGSGTQFTLTISDVQSDDAATYYCIGGYSSSSDTNAFGGGTEVVVK = 319
P018.S.05.A.E03 (antibody, V domains shown, V regions on human Ig constant parts; also called AB27_89) VH: QSLEESGGRLVTPGGSLTLTCTVSGIDLSSYAMGWVRQAPGKGLEWIGYITYGGSTYYANWVNGRFTISKTSTMVDLKMTSLTAADTATYFCARLRAPYYYRIYFNLWGPGTLVTVSS VL: ALVMTQTPSSVEAAVGGTVTIKCQASQNIISALAWYQQKPGQPPKLLIYDASNLESGVPSRFKGSGSGTDFTLTISDLESADAATYYCQGAYDTNINDFGGGTEVVVK = 322

### Prompt I'd like to know its Cellular binding assay [RFU]. The binder in question is P018.S.06.A.A05 (antibody, V domains shown, V regions on human Ig constant parts; also called AB27_97) VH: QSLEESGGRLVTPGTPLTLTCTVSGIDLSSYAMGWVRQAPGKGLELIGLIYASNRTHYATWAKGRFTISKSSTTVDLKATSLTTEDTATYFCGRYGRGSGGYYYGMDLWGPGTLVTVSS VL: DVVMTQTPASVEAAVGGTVTIKCQASQSGDNYLSWYQQKSGQPPKLLIYLASTLASGVPSRFRGSRSGTEYTLTISDLESADAATYYCQNYCAGSGVCVGVAFGGGTEVVVK
### Response 140
